System: CAKI-1
experiment: NCI tumour cell line growth inhibition, 48 h
Active and inactive are the calls of the source. No stated cut-off is given here; in the data, active = GI50 up to about 1.1 µM and inactive = higher.

compound	assayed system	GI50
COc1cc(/C=C2\CC/C(=C\c3cc(OC)c(O)c(OC)c3)C2=O)cc(OC)c1O	CAKI-1	2.72 µM (inactive)
C/C(=N/NC(=S)N1CCCCC1)c1ccccc1O	CAKI-1	> 31.6 µM (inactive)
O=C(N1CCN(c2ccccc2)CC1)N(C(=O)C1(c2ccc(Cl)cc2)CCCC1)S(=O)(=O)c1ccccc1	CAKI-1	26.5 µM (inactive)
COc1cc(/C=C/c2ccc(OC)c(OC)c2OC)cc(OC)c1OC	CAKI-1	25.1 µM (inactive)
COC(=O)c1ccc(-c2nc(C#N)c(N)o2)cc1	CAKI-1	> 100 µM (inactive)
CC(N/N=C(\S)N1CCN(c2ccccn2)CC1)c1nccc2ccccc12 (stereo not given)	CAKI-1	1.61 µM (inactive)
O=C(Cc1nccc2c1[nH]c1ccccc12)OC1C#CCSCC#C/C=C\1 (stereo not given)	CAKI-1	> 100 µM (inactive)
COC(=O)Cc1ccc(Oc2nc3ccccc3nc2-c2cccs2)cc1	CAKI-1	> 100 µM (inactive)
COc1ccccc1-n1c(N)c2c(C)c(-c3ccccc3)[nH]c2nc1=S	CAKI-1	> 100 µM (inactive)
CC(CCOc1ccc2ccc(=O)oc2c1)C1=CC(=O)C(C)(C)O1 (stereo not given)	CAKI-1	2.86 µM (inactive)
COc1ccc(C2CC(c3cc(C)ccc3O)=NC(N)=N2)cc1 (stereo not given)	CAKI-1	> 100 µM (inactive)
COC(=O)/N=[N+](\[O-])C(c1ccc(OC)cc1)C1CCCCC1 (stereo not given)	CAKI-1	2.12 µM (inactive)
CC1(C)COC2=C(C1)C(=O)c1ccccc1C2=O	CAKI-1	2.23 µM (inactive)
O=c1c2ccccc2nc(-c2ccccc2)n1NC(=S)Nc1ccc(Cl)cc1	CAKI-1	> 100 µM (inactive)
COc1ccc(-c2cc(-c3cc(F)c(Cl)cc3Cl)[nH]n2)cc1OC	CAKI-1	50.8 µM (inactive)
CCc1cccc(C)c1NC(=O)CC1C(=O)Nc2ccccc2[S+]1[O-] (stereo not given)	CAKI-1	53.6 µM (inactive)
CCc1cc(O)c(Cl)c(C)c1Cl	CAKI-1	17.3 µM (inactive)
O=C(O)C1=C(C(=O)Nc2ccc(NC(=O)C3=C(C(=O)O)C4C=CC3C4)cc2)C2C=CC1C2	CAKI-1	> 100 µM (inactive)
C[C@@H]1CC[C@@]2(C)[C@H](C)/C(=C\COC(=O)/C=C/c3ccc(O)c(O)c3)CC[C@@]12C [NAVICULYL CAFFEATE]	CAKI-1	4.58 µM (inactive)
CCOC(=O)C1C(c2ccc([N+](=O)[O-])cc2)NC(c2ccc([N+](=O)[O-])cc2)C(C(=O)OC)S1(=O)=O (stereo not given)	CAKI-1	> 100 µM (inactive)
Cc1ccc(/C=C2\CCCCCC2=O)cc1	CAKI-1	> 100 µM (inactive)
NCCOCC(N)C(=O)O (stereo not given)	CAKI-1	> 100 µM (inactive)
S=c1cc(S)c2c(=S)sc3nc4ccccn4c(=S)c3c2s1	CAKI-1	> 100 µM (inactive)
COc1ccc(/C=C/C(=O)NCC(NC(=O)/C=C/c2ccc(OC)c(OC)c2)C(=O)O)cc1OC (stereo not given)	CAKI-1	> 100 µM (inactive)
COc1ccc2c(c1)-c1[nH]c3ccccc3c1CC2	CAKI-1	15.4 µM (inactive)
COc1cc(CCNC2=CC(=O)c3nc[nH]c3C2=O)ccc1O	CAKI-1	48.3 µM (inactive)
COc1ccc(-c2nc3ccc([N+](=O)[O-])cc3c(=O)[nH]2)cc1	CAKI-1	28.8 µM (inactive)
O=C(c1ccccc1)c1c(-c2ccccc2)sc2nc3ccccc3nc12	CAKI-1	> 100 µM (inactive)
CC(O)CCNC(=O)Nc1c(C(F)(F)F)cc(-c2ccccc2)[nH]c1=O (stereo not given)	CAKI-1	> 100 µM (inactive)
C=C(C)[C@@H]1CC[C@]2(CO)CC[C@]3(C)[C@H](CC[C@@H]4[C@@]5(C)CC[C@H](O)C(C)(C)[C@@H]5CC[C@]43C)[C@@H]12	CAKI-1	15.3 µM (inactive)
